# Target system: T1, human complement C2 (human, UniProt P06681 21-752)
# T1 construct: Recombinant full-length human C2 with C-terminal 8x His tag, purified from Expi293F supernatant; also called human C2; huC2
# T1 sequence: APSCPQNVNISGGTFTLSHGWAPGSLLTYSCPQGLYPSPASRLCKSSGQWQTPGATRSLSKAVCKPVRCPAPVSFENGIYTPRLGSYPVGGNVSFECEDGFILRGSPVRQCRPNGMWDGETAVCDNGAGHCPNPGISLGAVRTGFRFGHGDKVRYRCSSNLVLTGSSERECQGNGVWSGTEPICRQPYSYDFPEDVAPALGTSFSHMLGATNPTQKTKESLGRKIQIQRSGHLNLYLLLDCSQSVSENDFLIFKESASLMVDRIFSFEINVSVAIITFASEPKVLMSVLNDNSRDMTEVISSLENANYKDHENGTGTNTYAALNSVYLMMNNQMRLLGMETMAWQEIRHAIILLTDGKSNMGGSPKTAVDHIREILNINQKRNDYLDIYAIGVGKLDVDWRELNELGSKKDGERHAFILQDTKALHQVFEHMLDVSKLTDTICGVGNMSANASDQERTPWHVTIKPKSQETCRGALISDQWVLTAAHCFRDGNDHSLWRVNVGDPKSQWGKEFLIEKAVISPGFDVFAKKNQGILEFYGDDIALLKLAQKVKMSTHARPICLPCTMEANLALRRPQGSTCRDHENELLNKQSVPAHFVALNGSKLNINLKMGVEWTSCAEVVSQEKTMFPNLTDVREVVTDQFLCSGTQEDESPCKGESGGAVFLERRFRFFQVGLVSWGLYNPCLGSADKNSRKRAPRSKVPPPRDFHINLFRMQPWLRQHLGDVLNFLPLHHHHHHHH
# Method: SPR, mAb captured, C2 analyte, HBS-EP, pH 7.3
Value type: pKd
For clarity, pKd is expressed as the negative log10 of concentration in mol/L.

// solved cases for pKd follow
RF16-191 (antibody, V domains shown, Human antibody from a phage display library) VH: EVQLLESGGGLVQPGGSLRLSCAASGFTFSKYWMGWVRQATGKGLEWVSSIYSSGGWTYYADSVKGRFTISRDNSKNTLYLQMNSLRAEDTAVYYCARRPRSFSGSYYRAFDIWGQGTMVTVSS VL: DIQMTQSPSSLSASVGDRVTITCRASQSITDYLNWYQQRPGKAPKLLIYAASSLQSGVPSRFSGSGSGTDFTLTISGLQPEDFATYYCQQSYSSSITFGQGTRLDLKR
7.96
RF16-242G (antibody, V domains shown, Germlined version of RF16-242) VH: EVQLVQSGAEVKKPGESLKISCKGSGYSFTSYWIGWVRQMPGKGLEWMGIIYPGDSDTRYSPSFQGQVTISADKSISTAYLQWSSLKASDTAMYYCARRGHYGDYFDYWGQGTLVTVSS VL: SYELTQPPSVSVSPGQTARITCSGDALPKKYAYWYQQKSGQAPVLVIYEDRRRPSGIPERFSGSSSGTMATLTISGAQVEDEADYYCYSRDRAGNQRVFGGGTQLTVLG
8.17

Switching to the query record.
Which value of pKd has been reported for RF16-203 (antibody, V domains shown, Human antibody from a phage display library) VH: EVQLLESGGGLVQPGGSLRLSCAASGFTFSRYYMMWVRQAPGKGLEWVSSIGSSGGTTNYADSVKGRFTISRDNSKNTLYLQMNSLRAEDTATYYCAKGGMVLGVVNIWGQGTLVTVSS VL: QSALTQPPSVSVSPGQTATITCSGDKLGEKYVSWYQQKPGQSPVVVIFQDIKRPSGIPERFSGSNSGNTATLTISGTQAMDEADYYCQTWGTGGIQVFGGGTKLTVLR in the records?
8.60
